system: OVCAR-5 ovarian; assay: NCI-60 one-dose screen, 48 h (100 = growth as untreated, 0 = no growth, -100 = all killed); conditions: 10 µM unless noted
About 83,000 compounds went through this panel and 20% of them were active in at least one assay; those are over-represented in the sample as a whole. Activity calls are given as the source filed them. How the source made its calls: active means growth percent below 10; inactive means the rest.
experimental_endpoint: growth

Query block: Please indicate growth recorded for `O=c1c(CNc2ccc(S(=O)(=O)Nc3nccs3)cc2)coc2ccccc12`
Result block: 92.8% (inactive)

Query block: Give reported growth value for `COc1cc(-c2cc(-c3nc4cc(Cl)c(Cl)cc4[nH]3)[nH]n2)cc(OC)c1OC`
Result block: 101% (inactive)

Query block: Fill in reported growth for this entry: `COc1ccc(/C=C(\C#N)c2cc3ccccc3n2S(C)(=O)=O)cc1`
Result block: 99.3% (inactive)

Query block: Supply growth value. Item: `C[C@H]1[C@@H]2[C@H]3CC[C@@H]4[C@@]5(C)Cc6c([nH]c7ccccc67)C(C)(C)[C@@H]5CC[C@@]4(C)[C@]3(C)CC[C@]23CO[C@]1(C)[C@@H](C(=O)/C=C/c1ccccn1)C3`
Result block: 108% (inactive)

Query block: Give growth for O=C(c1ccccc1)C(CN1CCOCC1)c1ccccc1 (configuration not stated)
Result block: 116% (inactive)

Query block: Name the recorded growth of the item `c1ccc2[nH]c(-c3ccc(Nc4nc(N5CCCCC5)nc(N5CCOCC5)n4)cc3)nc2c1` in your answer.
Result block: 73.9% (inactive)

Query block: Fill in reported growth for this entry: `Cc1nn(-c2ccc(Br)cc2)c2nc3[nH]c(=O)[nH]c(=O)c3nc12`
Result block: 112% (inactive)

Query block: Respond only with growth recorded for `C#CCn1c2c(c3ccccc31)C[C@]1(C)[C@H]3CC[C@@H]4[C@@H]5C(=CCC[C@H]5C(=C)C)CC[C@@]4(C)[C@]3(C)CC[C@H]1C2(C)C`
Result block: 101% (inactive)

Query block: Let me know recorded growth for `COC(=O)[C@]12CC[C@@H](C)[C@H](C)[C@@H]1C1=CC[C@@H]3[C@@]4(C)C(c5ncon5)=C[C@@](C)(CO)C4=CC[C@@]3(C)[C@]1(C)CC2` , thanks.
Result block: -56.2% (active)

Query block: Give the value of growth reported for the following: `O=Cc1nc2ccccc2[nH]1`
Result block: 104% (inactive)

Query block: Annotate the compound `Cc1cc(N2CCN(C)CC2)nc(N(CCNc2ccnc3cc(Cl)ccc23)Cc2ccco2)n1` with its measured growth.
Result block: 73.3% (inactive)

Query block: Read the entry `C=C(C)[C@@H]1CC[C@]2(C(=O)O)CC[C@]3(C)[C@H](CC[C@@H]4[C@@]5(C)C/C(=C/c6cccc(I)c6)C(=O)C(C)(C)[C@@H]5CC[C@]43C)[C@@H]12` and write its reported growth.
Result block: 81.3% (inactive)

Query block: Tell me measured growth for OCC1OC(n2cnc3c(Cl)ncnc32)CC1O (configuration not stated) please.
Result block: 101% (inactive)

Query block: Identify measured growth corresponding to `CCN(CC)CCCCCCNc1ccnc2cc(Cl)ccc12`
Result block: 112% (inactive)

Query block: Provide one value: measured growth of `C=C(C)[C@@H]1CC[C@]2(C(=O)N3CCN(CC)CC3)CC[C@]3(C)[C@H](CC[C@@H]4[C@@](C)(CCC(=O)N5CCN(CC)CC5)[C@H](C(=C)C)CC[C@]43C)[C@@H]12`
Result block: 72.3% (inactive)

Query block: Please give the documented growth of `CCCCCCCN(CCCCCCC)C(=N)c1ccnc2ccccc12`
Result block: 34.7% (inactive)

Query block: Specify measured growth for `COc1cc(-c2cc3ncccc3c3nc(N)c4cccnc4c23)cc(OC)c1OC` .
Result block: 35.7% (inactive)

###

system: T-47D breast; assay: NCI-60 one-dose screen, 48 h; details: 10 µM unless noted
About 83,000 compounds went through this panel and 20% of them were active in at least one assay; those are over-represented in the sample as a whole. The source made the active and inactive calls. Rule for the calls: active = growth percent below 10; inactive = the rest.
Please answer using one outcome listed in active, inactive

Query block: # lookup: test call for `C=C1C(=O)O[C@H]2[C@H]1CC/C(Cn1cc(-c3ccc(OC)cc3)nn1)=C\CC[C@@]1(C)O[C@@H]21`
Result block: active

Query block: Dear all, I need the recorded test outcome for `Fc1ccc(Nc2ccc3c(OCCCN4CCOCC4)cccc3n2)cc1F` , thank you.
Result block: inactive

Query block: What was the test verdict on `O=C1Nc2ccccc2/C1=C/c1cn(CCCn2c3ccccc3c(=O)c3ccccc32)c2ccccc12` ?
Result block: inactive

Query block: Write down the call the test reported for this compound. Item: COc1cc(/C=C2\C(=O)N(CC(O)COc3cc(O)c4c(=O)cc(-c5ccccc5)oc4c3)c3ccccc32)cc(OC)c1O (stereo not drawn)
Result block: inactive

Query block: What did this assay record as the result for `COc1cc(-c2cc3ncccc3c3nc(OCCN(C)C)c4cccnc4c23)cc(OC)c1OC` ?
Result block: inactive

Query block: // param item: O=C1c2ccccc2NC(c2cn(-c3ccccc3)nc2-c2cccnc2)N1Cc1ccccc1 (stereo not drawn) ; yields the recorded call
Result block: inactive

Query block: Field: outcome | Entry: N#CC1c2ccccc2-c2ccccc2N1C(=O)c1ccccc1 (stereo not drawn)
Result block: inactive

Query block: Identify the outcome logged in this assay for the compound shown: `Cn1c2c(c3ccc(Cl)cc31)-n1cccc1C2=O`
Result block: inactive

Query block: Entry `Nc1c(C(=O)Nc2cccc(Cl)c2)sc2ncc(Cl)cc12` : call = ?
Result block: inactive

Query block: Assay result, entry `Cc1cc(Nc2ccc(F)cc2)nc(N2CCN(c3ccnc4cc(Cl)ccc34)CC2)n1` — outcome?
Result block: inactive

Query block: Please let me know the test result on file for COC(=O)C(N)CSC(c1ccccc1)(c1ccccc1)c1ccccc1 (stereo not drawn) .
Result block: inactive

Query block: So what was the verdict on `C=C(C)[C@@H]1CC[C@]2(C=NCCCNCCCCNCCCN)CC[C@]3(C)[C@H](CC[C@@H]4[C@@]5(C)CCCNC(C)(C)[C@@H]5CC[C@]43C)[C@@H]12` in this test?
Result block: inactive

Query block: What classification did `C=C(C)[C@@H]1CC[C@]2(C(=O)N3CCN(CC)CC3)CC[C@]3(C)[C@H](CC[C@@H]4[C@@](C)(CCC(=O)N5CCN(CC)CC5)[C@H](C(=C)C)CC[C@]43C)[C@@H]12` end up with in this test?
Result block: inactive

Query block: # lookup: test call for `CC(C)(C)c1ccc(OP(=S)(N/N=C/c2ccccc2O)Oc2ccc(C(C)(C)C)cc2)cc1`
Result block: inactive

Query block: Returns: the outcome recorded for `CN(C)c1ccc(N)c2ccccc12` in this assay.
Result block: inactive

Query block: Answer briefly: the call reported for `COc1ccc2nc(-c3cc(-c4cc(OC)c(OC)c(OC)c4)n[nH]3)[nH]c2c1` in this assay.
Result block: active

Query block: Please indicate how the test categorized `CN1CCN(CC#CCn2c3c(c4ccccc42)C[C@]2(C)[C@H]4CC[C@@H]5[C@H]6[C@H]7OC(=O)[C@@]6(CCC7(C)C)CC[C@@]5(C)[C@]4(C)CC[C@H]2C3(C)C)CC1` .
Result block: inactive

Query block: Call for entry `COc1cc2c(cc1OC)C(=O)/C(=C/c1cc(-c3ccc4c(c3)OCO4)n[nH]1)C2` :
Result block: active

Query block: # outcome recorded in this test, key = `CCc1ccc(-c2ccc(Nc3ccccc3)nn2)cc1S(N)(=O)=O`
Result block: inactive

Query block: Short answer needed: outcome of this test for `Cn1cc(-c2nc(-c3cn(C)c4ncccc34)cs2)c2ccccc21` ?
Result block: inactive

Query block: Kindly provide the recorded test outcome for the following compound: `Cn1cnc2c1c(=O)n(CCC(=O)Nc1ccc(F)cc1)c(=O)n2C`
Result block: inactive

Query block: Could you kindly confirm the outcome this assay logged for `COc1cc(-c2cc3ncccc3c3[nH]c(=O)c4cccnc4c23)cc(OC)c1OC` ?
Result block: inactive

Query block: Can you look up the reported call for `CCOc1ccc(NC(=O)c2ccoc2COc2ccccc2)cc1` for me?
Result block: inactive

Query block: Tell me the recorded outcome of this test for `O=C(O)/C(=C/c1ccc(O)cc1)c1ccccc1` .
Result block: inactive

Query block: Field: outcome | Entry: `CC(C)(C)c1cc(-n2c(-c3ccc(Cl)cc3)nc3cc(C(=O)Nc4ccc(Cl)cc4)ccc32)n[nH]1`
Result block: inactive

Query block: Tell me the assay call for CCOC(=O)c1ccc2c(c1)[n+](=O)c(C(=O)C1CCCS1)c(C(F)(F)F)n2[O-] (stereo not drawn) please.
Result block: active

Query block: // param item: `Fc1ccc2nc(-c3cc(-c4ccc5c(c4)OCO5)n[nH]3)[nH]c2c1` ; yields the recorded call
Result block: inactive

Query block: For this compound, state the assay outcome: `Cc1ccc(-c2nn(Cc3cn(-c4cc(C)nc5ccccc45)nn3)c3ncnc(N)c23)cc1`
Result block: inactive

Query block: Hello, I am checking results. What call was entered for `C=C1CC[C@@H](C(=O)OC)Cc2nc(C)ccc21` ?
Result block: inactive

Query block: Record lookup: outcome of this test for `NCCn1cc(-c2nc(-c3c[nH]c4ncccc34)cs2)c2ccccc21` ?
Result block: inactive

Query block: Hi, sorry to bother you, what did the test record for `Cn1cc(-c2nc(-c3cn(C)c4ncccc34)cs2)c2cc(F)ccc21` ?
Result block: inactive

Query block: Call for entry `CCCCC[C@H]1C/C=C2/C(=O)C(Cl)=C[C@@H]2C/C=C\CCCC(=O)O1` :
Result block: active

Query block: Could you check what this test reported for `Cc1cc(C)n(Cc2cc(C(C)(C)C)cc(C(C)(C)C)c2)c(=O)c1C#N` ?
Result block: inactive

Query block: For `C=C(C)[C@@H]1CC[C@]2(C)[C@H](CC=C3[C@@H]4CC(C)(C)CC[C@]4(C(=O)OC)CC[C@]32C)[C@@]1(C)CC/C(N)=N/O` , what call appears in the results of this test?
Result block: active

Query block: Could you check what this test reported for `Nc1c(C(=O)Nc2cccc3ccccc23)sc2nc3c(cc12)CCCC3` ?
Result block: inactive

Query block: Answer briefly: the call reported for `CC(C)(C)c1nc(-c2ccc(O)c(O)c2)cs1` in this assay.
Result block: inactive

Query block: Given `COc1cc(C(=O)/C=C/c2cc(-c3ccc4c(c3)OCO4)n[nH]2)cc(OC)c1OC` , state the outcome it received in this test.
Result block: inactive

Query block: Please state the recorded outcome for this compound: `Nc1ccc(Br)cn1`
Result block: inactive
